Here's what we have: Ki numbers for D(3) dopamine receptor (Homo sapiens, UniProt P35462).
# number only, unit nM dropped from output

Answered cases to consult:
> print(dat)
                                 smiles.str  quantity.measured  quantitative.readout
1  Clc1ccc2[nH]ccc2c1-[n+]1cc[n+](Cc2ccccc2)cc1                 Ki                  95.3
2  Brc1ccc(-[n+]2cc[n+](Cc3ccccc3)cc2)c2cc[nH]c12                 Ki                    56

Consider now this further compound.
Report Ki from D(3) dopamine receptor (Homo sapiens, UniProt P35462) testing of c1ccc(C[n+]2cc[n+](-c3cccc4[nH]cnc34)cc2)cc1
870
